- SYSTEM: human AIM2 protein (Homo sapiens, UniProt O14862)
- Sequence (O14862 whole entry): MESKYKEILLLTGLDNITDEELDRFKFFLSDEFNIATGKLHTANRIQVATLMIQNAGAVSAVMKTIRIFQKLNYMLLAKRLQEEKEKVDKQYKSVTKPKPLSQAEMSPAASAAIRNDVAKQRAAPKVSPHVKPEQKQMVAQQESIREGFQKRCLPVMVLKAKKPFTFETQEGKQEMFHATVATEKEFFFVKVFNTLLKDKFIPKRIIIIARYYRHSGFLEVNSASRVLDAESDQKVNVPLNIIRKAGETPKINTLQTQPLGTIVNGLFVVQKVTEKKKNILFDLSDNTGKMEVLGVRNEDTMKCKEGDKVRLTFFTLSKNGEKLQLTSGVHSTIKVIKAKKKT
ASSAY_ENDPOINT: pKd
One number for each entry, as −log10 of the molar value.

Task: Please look up its pKd: COc1cc(/C=C/C(=O)CC(=O)/C=C/c2ccc(O)cc2)ccc1O
Result: 5.81
